Hey, just so you know, these numbers are from PubChem BioAssay AID2060890.

# System: LG0703-F948-PDC complex spheroid viability;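 also: spheroids exposed to agents for 7 days; 100% = DMSO vehicle wells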
# assayDetails: Anticancer human tumor LG0703-F948-PDC patient-derived lung adenocarcinoma cell line growth inhibition [RAS]
# experimentalParameters: second compound 0.0316 µM; first compound 0.0949 µM; stronger effect = lower value
// reported viability, T/C per item
property: viability, T/C (%)

compound="CC1(C)CCC(Nc2ncc(C(F)(F)F)c(-c3c[nH]c4c(P(C)(C)=O)c(C#N)ccc34)n2)CN1 (centres undefined) + C#Cc1c(F)ccc2cc(O)cc(-c3ncc4c(N5CC6CCC(C5)N6)nc(OCC56CCCN5CC(F)C6)nc4c3F)c12" measured=63.3
compound="CCc1c2c(nc3ccc(O)cc13)-c1cc3c(c(=O)n1C2)COC(=O)[C@]3(O)CC + C=CC(=O)N1CCN(c2nc(OCC3CCCN3C)nc3c(F)c(-c4nc(N)cc(C)c4C(F)(F)F)c(Cl)cc23)C(C)C1" measured=34
compound="CC1(C)CCC(Nc2ncc(C(F)(F)F)c(-c3c[nH]c4c(P(C)(C)=O)c(C#N)ccc34)n2)CN1 (centres undefined) + C=CC(=O)N1CCN(c2nc(OCC3CCCN3C)nc3c(F)c(-c4nc(N)cc(C)c4C(F)(F)F)c(Cl)cc23)C(C)C1" measured=54.7
compound="CCc1c2c(nc3ccc(O)cc13)-c1cc3c(c(=O)n1C2)COC(=O)[C@]3(O)CC + C#Cc1c(F)ccc2cc(O)cc(-c3ncc4c(N5CC6CCC(C5)N6)nc(OCC56CCCN5CC(F)C6)nc4c3F)c12" measured=41.7
